Taken from patent US20220267379A1.

target-system: plasmin
assay-overview: enzyme inhibition
pKi: −log10 of the molar value. Positions of bridges follow the written chain, without caps; N, C: chain ends. No end group written: not given here.
quantity: pKi

>>> measured_value("GCTRQYPC (linker 2-8 via 1,3‑dibromoacetone) [peptide 035]")
"< 4.00"
